# System: U2OS
# EXPERIMENTAL DETAILS: Multiplex assay against U2OS
# Type: toxicity, cell-based
# PROTOCOL CONDITIONS: human, 48 h, 10 µM, compound concentration 10 uM, replicate 2
ASSAY METRIC: Population Tubulin-Different-Phenotype (%)
Give bare numbers, in %.

Worked cases, Population Tubulin-Different-Phenotype (%) given:
CN1CCC(=C2c3ccccc3CC(=O)c3sccc32)CC1.O=C(O)/C=C/C(=O)O [KETOTIFEN FUMARATE]	78
O=C(Nc1ccc(Cl)cc1)Nc1cccc(-c2cccc(N3CCCC3)n2)c1	48
Cl.O=c1c2cccn2c2ccccc2n1CCCN1CCC(c2ccc(Cl)cc2)CC1	97

// each compound listed below needs its Population Tubulin-Different-Phenotype (%)
1. CCn1c(=O)c(-c2ccc(-c3cncs3)cc2Cl)cc2cnc(Nc3ccc(N4CCN(C)CC4)cc3)nc21
2. CN1C2CCC1CC(OC(c1ccc(F)cc1)c1ccc(F)cc1)C2.Cl (centres undefined)
3. Cc1cn(-c2cc(NC(=O)c3ccc(C)c(Nc4nccc(-c5cccnc5)n4)c3)cc(C(F)(F)F)c2)cn1 [NILOTINIB]

Reply:
18
27
25
